B1: ANKRD9 (parent)
chain: VGAAGSARQELLGDRPRWQRLLGE

- Variants of: B1
- Assay procedure: protein stability index of a GFP-peptide fusion (GPS, HEK-293T) (PSI 1-6); higher = more stable;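 note: lentivirally expressed fusions sorted by FACS into six bins by GFP to DsRed ratio, PSI derived from sequencing read proportions per bin multiplied by bin number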
- Run conditions: c terminus: a fixed tail appended
Quantity kind: protein stability index
Give your answer as a number; write no unit.

Recorded protein stability index, per entry:
Mutations	protein stability index
V1M	3.03
S6R	2.62
W18A	4.38
A3C	1.52
R17D	3.41
D14R	2.75
R17Y	2.37
G5F	2.86
G5R	2.27
R15C	3.11

Prompt: Returns the measured protein stability index for the input variant. Input: R15Y
Response: 2.66

Prompt: Returns the measured protein stability index for the input variant. Input: E10D
Response: 3.37

Prompt: Returns the measured protein stability index for the input variant. Input: R17A
Response: 3.33

Prompt: Returns the measured protein stability index for the input variant. Input: Q19C
Response: 3.27
